Biological target: T1, human recombinant soluble CD73 protein (human, UniProt P21589 27-547)
T1 construct: also called huCD73; rhCD73
T1 sequence: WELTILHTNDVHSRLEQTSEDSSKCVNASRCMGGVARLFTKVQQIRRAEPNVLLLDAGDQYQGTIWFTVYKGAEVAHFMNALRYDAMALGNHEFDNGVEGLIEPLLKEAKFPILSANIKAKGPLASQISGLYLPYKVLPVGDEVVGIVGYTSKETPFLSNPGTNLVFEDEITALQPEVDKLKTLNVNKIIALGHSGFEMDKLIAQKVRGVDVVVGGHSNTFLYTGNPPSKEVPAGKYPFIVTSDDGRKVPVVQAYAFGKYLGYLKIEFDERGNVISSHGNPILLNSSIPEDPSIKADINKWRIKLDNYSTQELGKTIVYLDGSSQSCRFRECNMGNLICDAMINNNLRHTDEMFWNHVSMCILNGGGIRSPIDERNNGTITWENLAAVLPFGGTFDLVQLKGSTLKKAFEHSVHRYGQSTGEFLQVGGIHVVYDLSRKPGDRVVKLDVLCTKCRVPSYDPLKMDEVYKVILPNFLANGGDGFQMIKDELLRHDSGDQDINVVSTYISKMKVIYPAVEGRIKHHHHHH
Test: SPR, Ab captured on Protein A, soluble huCD73 as analyte
recorded-metric: Kd (nM)
Number in nM, nothing else.

As a guide, the following entries are already answered.
binder: H1L3 (antibody, human IgG1, V domains shown) VH: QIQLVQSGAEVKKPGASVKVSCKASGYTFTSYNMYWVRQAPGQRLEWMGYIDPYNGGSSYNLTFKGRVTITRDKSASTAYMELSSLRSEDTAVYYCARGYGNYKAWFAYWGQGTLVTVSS VL: DVQMTQSPSSLSASVGDRVTITCKASQSVSNDVAWYQQKPGKAPKLLIYYASTRYTGVPDRFSGSGYGTDFTFTISSLQPEDIATYYCQQDYSSLTFGQGTKLEIK
reported-value: 0.8

binder: H4L2 (antibody, human IgG1, V domains shown) VH: QIQLVQSGAEVKKPGASVKVSCKASGYAFASYNMYWVRQAPGQSLEWIGYIDPYNGGSSYNLTFKGKATLTVDKSASTAYMELSSLRSEDTAVYYCARGYGNYKAWFAYWGQGTLVTVSS VL: DIQMTQSPSSLSASVGDRVTITCKASQSVSNDVAWYQQKPGKAPKLLIYYASTRYTGVPDRFSGSGYGTDFTFTISSLQPEDIATYYCQQDYSSLTFGQGTKLEIK
reported-value: 0.9

-- ask Which measured Kd value corresponds to H0L3 (antibody, human IgG1, V domains shown, H0 VH limits counted by alignment with H1) VH: QVQLVQSGAEVKKPGASVKVSCKASGYTFTSYNMYWVRQAPGQRLEWMGYIDPYNGGSSYNLTFKGRVTITRDTSASTAYMELSSLRSEDTAVYYCARGYGNYKAWFAYWGQGTLVTVSS VL: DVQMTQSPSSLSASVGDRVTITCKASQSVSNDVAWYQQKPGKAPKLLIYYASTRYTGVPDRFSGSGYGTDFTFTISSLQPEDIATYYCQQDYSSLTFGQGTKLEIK ?
-- reply 0.6

Data provenance is patent US20220041744A1.
